assay.method.text: Cell viability analysis (WST-1), normal kidney cell line HEK293
Format: cell-based
measurement.parameters: human, HEK293 cells (normal kidney cell line), average of tests, read-out: survival rate (viability) of cells
Protocol: The cell numbers were counted and reseed as 2×10^6 in culture plate/flask. Then, the culture medium were added to a volume of 10 ml, and the cells were cultured for 2-3 days. Then, the cells were suspended for loading into 96-well plates. The number of cells was 3000 and the volume of the culture medium was 100 μl each well. Removing the original culture medium from 96-well plate. […] Detecting and calculate the survival rate of each cancer cells with an ELISA reader at OD450 nm. […]
Structures can show the parent of a compound that is named as a salt.
measure: viability at 72 h, 10 µM
The reply should read as a number followed by its unit.

Which viability at 72 h, 10 µM value belongs to C[C@@H](NCCCc1cccc(C(F)(F)F)c1)c1cccc2ccccc12 [Cinacalcet HCl, Cinacalcet hydrochloride] ?
114%

---

assay.method.text: Cell viability analysis (WST-1), normal pulmonary epithelial cell line BEAS-2B
Format: cell-based
measurement.parameters: human, BEAS-2B cells (normal pulmonary epithelial cell line), test 0510-10 min, read-out: survival rate (viability) of cells
Counter-ions that a name gives are not always drawn.
measure: viability at 72 h, 10 µM (%)
The response must be a number in % with no trailing unit.

Which viability at 72 h, 10 µM value belongs to C[C@@H](NCCCc1cccc(C(F)(F)F)c1)c1cccc2ccccc12 [Cinacalcet HCl, Cinacalcet hydrochloride] ?
70.5

---

assay.method.text: Cell viability analysis (WST-1), normal pulmonary epithelial cell line BEAS-2B
Format: cell-based
measurement.parameters: human, BEAS-2B cells (normal pulmonary epithelial cell line), summary, normal pulmonary epithelial cell line, read-out: Inhibitory effect
Where a name gives a salt, the structure may show the parent alone.
measure: viability at 72 h, 10 µM (%)
The response must be a number in % with no trailing unit.

Which viability at 72 h, 10 µM value belongs to C[C@@H](NCCCc1cccc(C(F)(F)F)c1)c1cccc2ccccc12 [Cinacalcet HCl, Cinacalcet hydrochloride] ?
76.1

---

assay.method.text: Cell viability analysis (WST-1), normal pulmonary epithelial cell line BEAS-2B
Format: cell-based
measurement.parameters: human, BEAS-2B cells (normal pulmonary epithelial cell line), average of tests, read-out: survival rate (viability) of cells
Counter-ions that a name gives are not always drawn.
measure: viability at 72 h, 10 µM (%)
The response must be a number in % with no trailing unit.

Which viability at 72 h, 10 µM value belongs to C[C@@H](NCCCc1cccc(C(F)(F)F)c1)c1cccc2ccccc12 [Cinacalcet HCl, Cinacalcet hydrochloride] ?
76.1
